biological target: Human CB1R (Cannabanoid receptor 1) (Homo sapiens (Human)); test: CB-1 in vitro cAMP (HTRF) assay in HEK-293 cells; conditions: HEK-293 cells stably transfected with human CB1R, 250 nM Forskolin, mean where tested more than once, read-out: CB-1 (HEK_cAMP) EC50
Sequence (P21554 whole entry): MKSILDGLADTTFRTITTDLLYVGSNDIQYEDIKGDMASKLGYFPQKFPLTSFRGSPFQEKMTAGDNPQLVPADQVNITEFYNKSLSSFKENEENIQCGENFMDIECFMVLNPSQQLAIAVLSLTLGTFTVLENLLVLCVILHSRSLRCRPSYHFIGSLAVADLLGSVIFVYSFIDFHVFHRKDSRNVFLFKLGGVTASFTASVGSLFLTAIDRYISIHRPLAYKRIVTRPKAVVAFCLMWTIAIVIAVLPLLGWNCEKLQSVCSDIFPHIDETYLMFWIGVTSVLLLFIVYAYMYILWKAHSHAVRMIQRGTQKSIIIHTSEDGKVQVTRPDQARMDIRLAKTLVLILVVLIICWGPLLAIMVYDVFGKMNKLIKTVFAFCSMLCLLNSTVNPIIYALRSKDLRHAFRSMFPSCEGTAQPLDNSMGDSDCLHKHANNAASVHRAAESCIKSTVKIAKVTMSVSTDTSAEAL
pEC50: −log10 of the molar value.
Parameter threshold = 8. Response is t when pEC50 meets or exceeds it, else f.

**Query** State whether the measured pEC50 reaches 8, counting equality as reaching it, for NS(=O)(=O)N1CCC(c2n[nH]c3ccc(C(c4ccc(Cl)cc4)c4ccc(Cl)cc4)cc23)CC1
**Result** f

**Query** State whether the measured pEC50 reaches 8, counting equality as reaching it, for O=C(O)c1cccc(S(=O)(=O)N2CCC(c3c4cc(C(c5ccc(Cl)cc5)c5ccc(Cl)cc5)ccc4nn3C3CC3)CC2)c1
**Result** t

**Query** State whether the measured pEC50 reaches 8, counting equality as reaching it, for O=C(O)c1ccc(CS(=O)(=O)N2CCC(c3nn(C4CC4)c4ccc(C(c5ccc(Cl)cc5)c5ccc(Cl)cc5)cc34)CC2)s1
**Result** f

**Query** State whether the measured pEC50 reaches 8, counting equality as reaching it, for O=C(O)c1ccc(C(c2ccc(Cl)cc2)c2ccc3[nH]nc(C4CCN(S(=O)(=O)C(F)(F)F)CC4)c3c2)cn1 (stereo not shown)
**Result** f

**Query** State whether the measured pEC50 reaches 8, counting equality as reaching it, for NC(=O)c1ccccc1S(=O)(=O)N1CCC(c2c3cc(C(c4ccc(Cl)cc4)c4ccc(Cl)cc4)ccc3nn2C2CC2)CC1
**Result** f

**Query** State whether the measured pEC50 reaches 8, counting equality as reaching it, for NC(=O)c1cccc(N2CCC(c3nn(C4CC4)c4ccc(C(c5ccc(Cl)cc5)c5ccc(Cl)cc5)cc34)CC2)c1
**Result** f

**Query** State whether the measured pEC50 reaches 8, counting equality as reaching it, for O=S(=O)(N1CCN(c2n[nH]c3ccc(C(c4ccc(Cl)cc4)c4ccc(Cl)cc4)cc23)CC1)C(F)(F)F
**Result** t

**Query** State whether the measured pEC50 reaches 8, counting equality as reaching it, for NC(=O)c1cccc(S(=O)(=O)N2CCC(Nc3n[nH]c4ccc(C(c5ccc(Cl)cc5)c5ccc(Cl)cc5)cc34)CC2)c1
**Result** f

**Query** State whether the measured pEC50 reaches 8, counting equality as reaching it, for O=C(O)c1ccc(C(=O)N2CCC(c3nn(C4CC4)c4ccc(C(c5ccc(Cl)cc5)c5ccc(Cl)cc5)cc34)CC2)cc1
**Result** f

**Query** State whether the measured pEC50 reaches 8, counting equality as reaching it, for O=C(O)c1ccc(CN2CCC(c3c4cc(C(c5ccc(Cl)cc5)c5ccc(Cl)cc5)ccc4nn3C3CC3)CC2)nc1
**Result** f
